Test system: S. aureus ATCC 43300
Format: cell-based, Staphylococcus aureus
Settings: ATCC 43300, 24 h
# key: entry, value: Minimal inhibitory concentration (MIC)
The response must be a number in µM with no trailing unit.

Lookup: # get_value(readout= Minimal inhibitory concentration (MIC), system= S. aureus ATCC 43300) for NCCCC[C@H](NC(=O)OCc1ccccc1Cl)C(=O)N[C@@H](Cc1ccccc1)C(=O)NCCCN(CCCNC(=O)[C@H](Cc1ccccc1)NC(=O)[C@H](CCCCN)NC(=O)OCc1ccccc1Cl)CC[C@@H](CO)N(CCCNC(=O)[C@H](Cc1ccccc1)NC(=O)[C@H](CCCCN)NC(=O)OCc1ccccc1Cl)CCCNC(=O)[C@H](Cc1ccccc1)NC(=O)[C@H](CCCCN)NC(=O)OCc1ccccc1Cl [Compound 10b]
Found: 7.3

###

Tested on: C. krusei ATCC 6258
Test: microbe, parasite or virus in culture
Assay type: cell-based, Candida krusei
Settings: ATCC 6258, 48 h, pH 7; read-out: Minimal inhibitory concentration (MIC)
RECORDED_METRIC: MIC
Note: a bare number is incomplete; add the unit.

NCCCC[C@H](NC(=O)OCc1ccccc1Cl)C(=O)N[C@@H](Cc1ccccc1)C(=O)NCCCN(CCCNC(=O)[C@H](Cc1ccccc1)NC(=O)[C@H](CCCCN)NC(=O)OCc1ccccc1Cl)C[C@@H](CO)N(CCCNC(=O)[C@H](Cc1ccccc1)NC(=O)[C@H](CCCCN)NC(=O)OCc1ccccc1Cl)CCCNC(=O)[C@H](Cc1ccccc1)NC(=O)[C@H](CCCCN)NC(=O)OCc1ccccc1Cl [Compound 10a] ... 6.8 µM

Alright, here's another molecule for you.
Lookup: What does the data say about its MIC? Entry: NCCCC[C@H](NC(=O)OCc1ccccc1Cl)C(=O)NCCCN[C@@H](CCCCN(CCCNC(=O)[C@H](CCCCN)NC(=O)OCc1ccccc1Cl)CCCNC(=O)[C@H](CCCCN)NC(=O)OCc1ccccc1Cl)C(=O)NCc1ccccc1
Found: 43 µM

###

Test system: S. aureus ATCC 43300
Format: cell-based, Staphylococcus aureus
Conditions: ATCC 43300, 24 h
RECORDED_METRIC: Minimal inhibitory concentration (MIC) (µM)
The response must be a number in µM with no trailing unit.

Worked set:
NCCCC[C@H](NC(=O)OCc1ccccc1Cl)C(=O)N[C@@H](Cc1ccccc1)C(=O)NCCCN(CCCC[C@@H](CO)N(CCCNC(=O)[C@H](Cc1ccccc1)NC(=O)[C@H](CCCCN)NC(=O)OCc1ccccc1Cl)CCCNC(=O)[C@H](Cc1ccccc1)NC(=O)[C@H](CCCCN)NC(=O)OCc1ccccc1Cl)CCCNC(=O)[C@H](Cc1ccccc1)NC(=O)[C@H](CCCCN)NC(=O)OCc1ccccc1Cl [Compound 10d] ... 1.7
NCCCC[C@H](NC(=O)OCc1ccccc1Cl)C(=O)N[C@@H](Cc1ccccc1)C(=O)NCCCN(CCCNC(=O)[C@H](Cc1ccccc1)NC(=O)[C@H](CCCCN)NC(=O)OCc1ccccc1Cl)CCC[C@@H](CO)N(CCCNC(=O)[C@H](Cc1ccccc1)NC(=O)[C@H](CCCCN)NC(=O)OCc1ccccc1Cl)CCCNC(=O)[C@H](Cc1ccccc1)NC(=O)[C@H](CCCCN)NC(=O)OCc1ccccc1Cl [Compound 10c] ... 13.6

Lookup: What does the data say about its Minimal inhibitory concentration (MIC)? Entry: NCCCC[C@H](NC(=O)OCc1ccccc1Cl)C(=O)N[C@@H](Cc1ccccc1)C(=O)NCCCN(CCCNC(=O)[C@H](Cc1ccccc1)NC(=O)[C@H](CCCCN)NC(=O)OCc1ccccc1Cl)C[C@@H](CO)N(CCCNC(=O)[C@H](Cc1ccccc1)NC(=O)[C@H](CCCCN)NC(=O)OCc1ccccc1Cl)CCCNC(=O)[C@H](Cc1ccccc1)NC(=O)[C@H](CCCCN)NC(=O)OCc1ccccc1Cl [Compound 10a]
Found: 3.4

###

Tested on: S. aureus ATCC 43300
Assay type: cell-based, Staphylococcus aureus
Conditions: ATCC 43300, 24 h
RECORDED_METRIC: Minimal inhibitory concentration (MIC) (µM)
The response must be a number in µM with no trailing unit.

Lookup: What does the data say about its Minimal inhibitory concentration (MIC)? Entry: NCCCC[C@H](NC(=O)OCc1ccccc1Cl)C(=O)NCCCN[C@@H](CCCN(CCCNC(=O)[C@H](CCCCN)NC(=O)OCc1ccccc1Cl)CCCNC(=O)[C@H](CCCCN)NC(=O)OCc1ccccc1Cl)C(=O)NCc1ccccc1
Found: 10.9

###

Test system: C. krusei ATCC 6258
Experiment: microbe, parasite or virus in culture
Type: cell-based, Candida krusei
Conditions: ATCC 6258, 48 h, pH 7; read-out: Minimal inhibitory concentration (MIC)
# key: entry, value: MIC
The response must be a number in µM with no trailing unit.

Worked set:
NCCCC[C@H](NC(=O)OCc1ccccc1Cl)C(=O)N[C@@H](Cc1ccccc1)C(=O)NCCCN(CCCNC(=O)[C@H](Cc1ccccc1)NC(=O)[C@H](CCCCN)NC(=O)OCc1ccccc1Cl)CC[C@@H](CO)N(CCCNC(=O)[C@H](Cc1ccccc1)NC(=O)[C@H](CCCCN)NC(=O)OCc1ccccc1Cl)CCCNC(=O)[C@H](Cc1ccccc1)NC(=O)[C@H](CCCCN)NC(=O)OCc1ccccc1Cl [Compound 10b] ... 6.9
NCCCC[C@H](NC(=O)OCc1ccccc1Cl)C(=O)NCCCN[C@@H](CCCN(CCCNC(=O)[C@H](CCCCN)NC(=O)OCc1ccccc1Cl)CCCNC(=O)[C@H](CCCCN)NC(=O)OCc1ccccc1Cl)C(=O)NCc1ccccc1 [Compound 7g] ... 5.4

Lookup: What does the data say about its MIC? Entry: NCCCC[C@H](NC(=O)OCc1ccccc1Cl)C(=O)NCCCN[C@@H](CN(CCCNC(=O)[C@H](CCCCN)NC(=O)OCc1ccccc1Cl)CCCNC(=O)[C@H](CCCCN)NC(=O)OCc1ccccc1Cl)C(=O)NCc1ccccc1 [Compound 7e]
Found: 44

###

Tested on: S. aureus ATCC 43300
Type: cell-based, Staphylococcus aureus
Conditions: ATCC 43300, 24 h
# key: entry, value: Minimal inhibitory concentration (MIC)
The response must be a number in µM with no trailing unit.

Worked set:
NCCCC[C@H](NC(=O)OCc1ccccc1Cl)C(=O)NCCCN[C@@H](CCN(CCCNC(=O)[C@H](CCCCN)NC(=O)OCc1ccccc1Cl)CCCNC(=O)[C@H](CCCCN)NC(=O)OCc1ccccc1Cl)C(=O)NCc1ccccc1 [Compound 7f] ... 10.3
NCCCC[C@H](NC(=O)OCc1ccccc1Cl)C(=O)NCCCN[C@@H](CCCCN(CCCNC(=O)[C@H](CCCCN)NC(=O)OCc1ccccc1Cl)CCCNC(=O)[C@H](CCCCN)NC(=O)OCc1ccccc1Cl)C(=O)NCc1ccccc1 [Compound 7h] ... 21.6

Alright, here's another molecule for you.
Lookup: What does the data say about its Minimal inhibitory concentration (MIC)? Entry: NCCCC[C@H](NC(=O)OCc1ccccc1Cl)C(=O)NCCCN[C@@H](CN(CCCNC(=O)[C@H](CCCCN)NC(=O)OCc1ccccc1Cl)CCCNC(=O)[C@H](CCCCN)NC(=O)OCc1ccccc1Cl)C(=O)NCc1ccccc1 [Compound 7e]
Found: 11.8
